B1: ARL6IP1 (parent)
chain: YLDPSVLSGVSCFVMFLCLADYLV

# Variants of: B1
# measurement_protocol: protein stability index of a GFP-peptide fusion (GPS, HEK-293T) (PSI 1-6); higher = more stable;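 note: lentivirally expressed fusions sorted by FACS into six bins by GFP to DsRed ratio, PSI derived from sequencing read proportions per bin multiplied by bin number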
# experimental_parameters: c terminus: a fixed tail appended
The label depends only on protein stability index: Criterion met if it is at least 3, Criterion not met if it is smaller.

>  <var>
L23P

>  <label_class>
Criterion not met

$$$$

Does protein stability index meet or surpass 3 for L23M ?
Criterion not met

Does protein stability index meet or surpass 3 for L19K ?
Criterion not met

Does protein stability index meet or surpass 3 for P4D ?
Criterion met

Does protein stability index meet or surpass 3 for A20Y ?
Criterion met

Does protein stability index meet or surpass 3 for V6I ?
Criterion met

Does protein stability index meet or surpass 3 for A20K ?
Criterion met

Origin of the recorded values: the supplement of paper PMC10567573
